# Assay System: PTK2 (human) (UniProt Q05397)
# Sequence (Q05397 whole entry, looked up): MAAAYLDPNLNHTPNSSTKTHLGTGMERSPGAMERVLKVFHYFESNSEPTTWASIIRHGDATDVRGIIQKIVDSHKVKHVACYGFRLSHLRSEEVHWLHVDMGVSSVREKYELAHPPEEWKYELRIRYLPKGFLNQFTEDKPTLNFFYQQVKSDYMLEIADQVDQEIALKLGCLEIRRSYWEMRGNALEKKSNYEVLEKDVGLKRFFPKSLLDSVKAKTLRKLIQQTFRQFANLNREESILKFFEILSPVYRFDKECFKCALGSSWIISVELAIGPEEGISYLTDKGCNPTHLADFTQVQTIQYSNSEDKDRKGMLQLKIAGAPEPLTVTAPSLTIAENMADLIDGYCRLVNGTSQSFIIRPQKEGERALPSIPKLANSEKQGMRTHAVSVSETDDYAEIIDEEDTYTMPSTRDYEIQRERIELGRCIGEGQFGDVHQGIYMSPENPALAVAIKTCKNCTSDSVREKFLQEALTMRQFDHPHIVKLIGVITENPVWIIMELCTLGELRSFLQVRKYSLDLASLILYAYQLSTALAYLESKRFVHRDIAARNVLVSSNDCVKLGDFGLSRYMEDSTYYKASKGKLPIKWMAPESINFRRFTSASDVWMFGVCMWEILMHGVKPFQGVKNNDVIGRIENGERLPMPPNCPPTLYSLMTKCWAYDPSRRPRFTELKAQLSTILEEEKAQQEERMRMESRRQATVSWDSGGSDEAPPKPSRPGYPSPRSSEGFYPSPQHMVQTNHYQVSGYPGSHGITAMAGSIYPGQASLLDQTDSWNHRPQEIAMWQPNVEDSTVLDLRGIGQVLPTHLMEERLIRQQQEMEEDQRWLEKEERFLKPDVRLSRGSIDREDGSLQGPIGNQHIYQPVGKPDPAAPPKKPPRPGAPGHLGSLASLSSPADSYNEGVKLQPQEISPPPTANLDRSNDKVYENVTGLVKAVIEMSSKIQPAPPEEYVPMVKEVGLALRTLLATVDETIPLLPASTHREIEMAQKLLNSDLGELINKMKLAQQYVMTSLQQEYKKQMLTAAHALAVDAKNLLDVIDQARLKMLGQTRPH
# Assay Info: radiometric filter-binding kinase assay, Kinase HotSpot
# Condition: compound 0.5 µM; ATP 10 µM
# maps each entry to its residual activity
Provide the reading as a plain figure in %.

Example compounds with recorded residual activity:
# Smiles Code, Endpoint, Observed Result
data = [
    ("CC(C)[C@H](CO)Nc1nc(Nc2cccc(Cl)c2)c2ncn(C(C)C)c2n1", "residual activity", 85.9),
    ("O=C1Cc2c([nH]c3ccc([N+](=O)[O-])cc23)-c2ccccc2N1", "residual activity", 88.1),
    ("Nc1n[nH]c2nnc(-c3c(-c4ccccc4)nn4ccccc34)cc12", "residual activity", 99.2),
    ("O=c1cc(-c2cccc3c2Sc2ccccc2S3)oc(N2CCOCC2)c1", "residual activity", 113),
    ("O=C(Nc1ccc(Cl)cc1)c1ccccc1NCc1ccncc1", "residual activity", 95.7),
    ("C#Cc1cccc(Nc2ncnc3cc(OCCOC)c(OCCOC)cc23)c1", "residual activity", 108),
    ("Nc1nc(Nc2ccc(S(N)(=O)=O)cc2)nn1C(=S)Nc1c(F)cccc1F", "residual activity", 25.3),
    ("Cc1cc2ncc(-c3ccccc3)nc2cc1C", "residual activity", 92.5),
    ("COc1ccc(-c2cnc3c(-c4ccsc4)cnn3c2)cc1", "residual activity", 93),
]

Attention now turns to another entry.
Problem: Field request: residual activity | item: `CCCNC(=O)Nc1ccc(Oc2ncnc3cc(OC)c(OC)cc23)cc1Cl`
Solution: 99.6
